Measured IC50 accompanies every entry in the list below.
Molecular target: PD-1/PD-L1 (Homo sapiens)
Test: PD-1/PD-L1 biochemical protein-protein interaction assay (ALPHA)
Type: binding
Settings: 0.3 nM His tagged PD-L1, 2.5 nM biotinylated Fc-PD-1; 60 minutes at 25° C.; read-out: IC50 PD-L1-PD1
Enter your answer as a number in nM; do not include the unit.

COc1nc(O[C@H]2CCc3c(-c4cccc(-c5ccc6c(n5)CCNC6)c4Cl)cccc32)c(C(F)(F)F)cc1CN1CC[C@@H](C(=O)O)C1 [Compound 1] | 0.064
C[C@](CO)(NCc1cc(Br)c(OCc2cccc(-c3cccc(-c4ccc5c(c4)CNCC5)c3Cl)c2Cl)nc1OCc1cncc(C#N)c1)C(=O)O [Compound 21] | 0.23

Here's the next entry for you.
The value of IC50 recorded for Cc1c(COc2cc(OCc3cncc(C#N)c3)c(CNC[C@@H](O)CC(=O)O)cc2Cl)cccc1-c1cccc(-c2ccc3c(c2)CNCC3NC(=O)NC2CC2)c1C (stereo partly shown) [Compound 13] when tested on PD-1/PD-L1 (Homo sapiens) reads 0.147

* * *

// reported EC50 per item
Molecular target: PD-1/PD-L1 (Homo sapiens)
Test: PD-1/PD-L1 NFAT reporter assay (co-culture of aAPC-PD-L1 CHO cells and Jurkat cells overexpressing PD-1, NFAT luciferase)
Settings: co-culture incubated for 6 hrs at 37° C.; luciferase under NFAT control
Give the quantity in nM, number only.

Guide cases for EC50, answers given:
COc1nc(O[C@H]2CCc3c(-c4cccc(-c5ccc6c(n5)CCNC6)c4Cl)cccc32)c(C(F)(F)F)cc1CN1CC[C@@H](C(=O)O)C1 | 1260
Cc1c(COc2cc(OCc3cncc(C#N)c3)c(CN[C@@](C)(CO)C(=O)O)cc2Cl)cccc1-c1cccc(-c2ccc3c(c2)CNCC3)c1C | 134

According to the records, this compound C[C@@](CO)(NCc1cc(Cl)c(OCc2cccc(-c3cccc(-c4ccc5c(c4)CNCC5)c3Cl)c2Cl)nc1OCc1cc(C#N)cc(C#N)c1)C(=O)O displays EC50 of 161

The reported EC50 of the compound Cc1c(COc2cc(OCc3cncc(C#N)c3)c(CN[C@@](C)(CO)C(=O)O)cc2Cl)cccc1-c1cccc(-c2ccc3c(c2)NC(=O)CNC3)c1C was 103

Sure, the documented EC50 for C[C@](CO)(NCc1cc(Cl)c(OCc2cccc(-c3cccc(-c4ccc5c(c4)CNCC5)c3Cl)c2Cl)nc1OCc1cc(C#N)cc(C#N)c1)C(=O)O is 155

* * *

Collected AC50 values appear next to each entry.
Biological target: PD-L1 (Homo sapiens, UniProt Q9NZQ7)
Construct: determine if they can specifically dimerize the extracellular domains of PD-L1
Test: PD-L1/PD-L1 dimerization biochemical protein-protein interaction assay (ALPHA)
Details: 0.5 nM His tagged PD-L1 and 0.5 nM FLAG tagged PD-L1; compound induced dimerization; read-out: AC50 PDL1 Dimer 1 nM
Unit nM implied. Number only.

COc1nc(-c2cccc(-c3cccc(-c4nc5c(s4)CNCC5)c3Cl)c2Cl)ccc1CNCCO [Compound 31] | 314

Now for a further compound.
Notebook: Cc1c(COc2cc(OCc3cc(Cl)cc(C#N)c3)c(CN[C@@](C)(CO)C(=O)O)cc2Cl)cccc1-c1cccc(-c2ccc3c(c2)CNCC3)c1C [Compound 7] , AC50 read as 75
